The measured values listed here are drawn from patent US20240025887A1.

Below, each of the compounds is paired with its reported IC50 value.
Target or system: NUAK2 (h) (Homo sapiens)
Construct: This assay was done radiometrically using full-length, recombinant enzyme
Sequence (Q9H093 whole entry): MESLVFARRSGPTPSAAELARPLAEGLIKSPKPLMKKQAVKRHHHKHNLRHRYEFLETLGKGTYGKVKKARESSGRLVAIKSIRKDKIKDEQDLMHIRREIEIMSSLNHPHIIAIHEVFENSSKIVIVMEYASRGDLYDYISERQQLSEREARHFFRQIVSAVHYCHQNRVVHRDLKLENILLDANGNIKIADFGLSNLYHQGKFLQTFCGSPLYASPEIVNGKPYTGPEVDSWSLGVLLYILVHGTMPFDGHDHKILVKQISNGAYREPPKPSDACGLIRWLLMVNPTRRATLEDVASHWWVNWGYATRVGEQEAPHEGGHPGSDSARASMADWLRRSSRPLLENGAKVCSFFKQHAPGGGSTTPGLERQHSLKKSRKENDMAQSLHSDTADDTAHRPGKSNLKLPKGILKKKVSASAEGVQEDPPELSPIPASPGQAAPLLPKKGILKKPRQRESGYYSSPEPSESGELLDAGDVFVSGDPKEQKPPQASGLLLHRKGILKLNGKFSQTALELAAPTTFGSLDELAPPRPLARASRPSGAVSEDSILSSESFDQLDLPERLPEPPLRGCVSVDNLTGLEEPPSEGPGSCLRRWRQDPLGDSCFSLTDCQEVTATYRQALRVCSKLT
Test: NUAK2 enzymatic assay (radiometric, Eurofins)
Setup conditions: radiometric, full-length recombinant enzyme
Description: To identify small molecule NUAK inhibitors, a biochemical NUAK2 enzymatic assay was outsourced to Eurofins. This assay was done radiometrically using full-length, recombinant enzyme. NUAK2 (h) was incubated with 8 mM MOPS pH 7.0, 0.2 mM EDTA, 300 μM […], 10 mM magnesium acetate and […] (specific activity and concentration as required). The reaction was initiated by the addition of the Mg/ATP mix. […]

# lookup: CN1CCc2cc(OC(F)F)c(Nc3ncc(Cl)c(Nc4ccsc4C(N)=O)n3)cc2C1 on NUAK2 (h) (Homo sapiens), IC50 = 11 to 100 nM

# lookup: C[C@@H]1CN(c2ccc(Nc3ncc(Cl)c(Nc4sccc4C(N)=O)n3)c(OC(F)F)c2)C[C@H](C)N1C on NUAK2 (h) (Homo sapiens), IC50 = 0.1 to 10 nM

# lookup: CC(C)N1CCN(C2CCN(c3ccc(Nc4ncc(C(F)(F)F)c(Nc5ccsc5C(N)=O)n4)c(OC(F)F)c3)CC2)CC1 on NUAK2 (h) (Homo sapiens), IC50 = 11 to 100 nM

# lookup: CN1C2CCC1CN(c1ccc(Nc3ncc(Cl)c(Nc4sccc4C(N)=O)n3)c(OC(F)F)c1)C2 on NUAK2 (h) (Homo sapiens), IC50 = 11 to 100 nM

# lookup: CC(C)N1CCN(C2CCN(c3ccc(Nc4ncc(Cl)c(Nc5ccsc5C(N)=O)n4)c(OC(F)F)c3)CC2)CC1 on NUAK2 (h) (Homo sapiens), IC50 = 11 to 100 nM
